Test system: Murine primary aortic smooth muscle cells (SMC)
method description: Murine primary aortic smooth muscle cell (SMC) migration, wounding assay
Type: cell-based, mice
study conditions: Mus musculus; inhibition of migration; compounds incubated 1.5 h, then CML-AGE (10 μg/ml) or PDGF-BB (10 ng/ml) for 4 h
readout name: log10(IC50) (log10 of the value in nM)

compound | readout name | result
CC(=O)NCc1ccc(-c2cc(C(=O)N3CCOCC3)c3ccc(C#N)cc3n2)cc1 [RAGE 289] | log10(IC50) | 1.26
N#Cc1ccc2c(C(=O)N3CCOCC3)cc(-c3ccc(C4CCCN4)cc3)nc2c1 (centres unmarked) [RAGE 407] | log10(IC50) | 2.18
N#Cc1ccc2c(CN3CCOCC3)cc(-c3ccc(C4CCC(=O)N4)cc3)nc2c1 (racemic) [RAGE 406] | log10(IC50) | 1.45
N#Cc1ccc2c(CN3CCOCC3)cc(-c3ccc(C(=N)N)cc3)nc2c1 [RAGE 290] | log10(IC50) | 0.78
N#Cc1ccc2c(CN3CCOCC3)cc(-c3ccc(C(N)=O)cc3)nc2c1 [RAGE 283] | log10(IC50) | 0.41
N#Cc1ccc2c(CN3CCOCC3)cc(-c3ccc(CCN)cc3)nc2c1 [RAGE 402] | log10(IC50) | 2.13
N#Cc1ccc2c(CN3CCOCC3)cc(-c3ccc(CN)cc3)nc2c1 [RAGE 286] | log10(IC50) | 2.43
CN(C)Cc1ccc(-c2cc(CN3CCOCC3)c3ccc(C#N)cc3n2)cc1 [RAGE 299] | log10(IC50) | 1.97
N#Cc1ccc2c(CN3CCOCC3)cc(-c3ccc(CN4CCCC4)cc3)nc2c1 [RAGE 401] | log10(IC50) | 2.96
N#Cc1ccc2c(CN3CCOCC3)cc(-c3ccc([C@@H]4CCC(=O)N4)cc3)nc2c1 [RAGE 406S] | log10(IC50) | 3.06
N#Cc1ccc2c(CN3CCOCC3)cc(-c3ccc([C@H]4CCC(=O)N4)cc3)nc2c1 [RAGE 406R] | log10(IC50) | 0.00

====

measured target: ctRAGE (Homo sapiens)
Sequence (Q15109 364-404 limits assumed): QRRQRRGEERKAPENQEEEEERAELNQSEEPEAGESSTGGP
pKd: −log10 of the molar value.
# pKd annotations

compound | measured target | pKd
N#Cc1ccc2c(CN3CCOCC3)cc(-c3ccc([C@H]4CCC(=O)N4)cc3)nc2c1 [RAGE 406R] | ctRAGE (Homo sapiens) | 9.22
N#Cc1ccc2c(CN3CCOCC3)cc(-c3ccc(CCN)cc3)nc2c1 | ctRAGE (Homo sapiens) | 8.52
N#Cc1ccc2c(CN3CCOCC3)cc(-c3ccc([C@@H]4CCC(=O)N4)cc3)nc2c1 [RAGE 406S] | ctRAGE (Homo sapiens) | 8.70
N#Cc1ccc2c(C(=O)N3CCOCC3)cc(-c3ccc(C4CCCN4)cc3)nc2c1 (stereo not drawn) | ctRAGE (Homo sapiens) | 8.70
N#Cc1ccc2c(CN3CCOCC3)cc(-c3ccc(C4CCC(=O)N4)cc3)nc2c1 (racemic) | ctRAGE (Homo sapiens) | 8.52
CN(C)Cc1ccc(-c2cc(CN3CCOCC3)c3ccc(C#N)cc3n2)cc1 | ctRAGE (Homo sapiens) | 8.10
